Consider the following compounds; for each one, report its IC50.
Test system: breast cancer cells MDAmb231
Assay: MTT assay, MDAmb231
Type: cell-based
Details: Homo sapiens, MDA-MB-231; 72 hours
Procedure: Effects of HDAC isotype-specific small molecule inhibitors on growth inhibition of various human cancer cells (from ATCC) in vitro were determined by MTT assays. Briefly, cells seeded in 96-well plates were incubated for 72 hours at 37° C. in a 5% CO2 incubator. […] After overnight incubation, solubilized dye was quantified by colorimetric reading at […] using a reference at 630 nM. […]
Report the figure in nM without appending any unit label.

Exercise: Supply measured IC50 of `COc1ccc(-c2ccnc(NCc3ccc(C(=O)Nc4ccccc4N)cc3)n2)cc1OC` in your reply.
Solution: 500

Exercise: Supply measured IC50 of `COc1ccc(NCc2ccc(C(=O)Nc3ccccc3N)cc2)cc1OC` in your reply.
Solution: 2000

Exercise: Supply measured IC50 of `Nc1ccccc1NC(=O)c1ccc(CSc2nc3ccccc3[nH]2)cc1` in your reply.
Solution: 1000

Exercise: Supply measured IC50 of `Cc1ccc(S(=O)(=O)Nc2ccc(/C=C/C(=O)Nc3ccccc3N)cc2)cc1` in your reply.
Solution: 2000
